The following binders are listed with their measured kon values.
- Experimental target: T1, recombinant human ASM protein (human, UniProt P17405 47-630)
- T1 construct: Recombinant human ASM in solution; also called acid sphingomyelinase (ASM) protein
- T1 sequence: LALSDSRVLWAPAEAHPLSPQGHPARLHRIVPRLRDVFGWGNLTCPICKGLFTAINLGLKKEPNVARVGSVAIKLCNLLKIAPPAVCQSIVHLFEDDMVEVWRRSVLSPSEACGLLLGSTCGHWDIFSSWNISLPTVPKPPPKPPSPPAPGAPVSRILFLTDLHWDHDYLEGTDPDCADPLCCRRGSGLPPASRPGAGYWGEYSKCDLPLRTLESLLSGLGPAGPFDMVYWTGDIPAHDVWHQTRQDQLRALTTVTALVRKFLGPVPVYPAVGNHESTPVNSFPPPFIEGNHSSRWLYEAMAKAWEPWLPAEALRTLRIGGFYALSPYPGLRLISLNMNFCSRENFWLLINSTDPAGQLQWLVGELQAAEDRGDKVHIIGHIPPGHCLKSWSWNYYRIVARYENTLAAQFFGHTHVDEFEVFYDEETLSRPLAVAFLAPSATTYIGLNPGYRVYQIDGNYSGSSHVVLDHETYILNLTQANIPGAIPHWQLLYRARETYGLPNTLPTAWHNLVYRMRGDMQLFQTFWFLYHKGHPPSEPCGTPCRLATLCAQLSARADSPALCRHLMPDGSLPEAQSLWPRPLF
- Measurement notes: BLI (Octet), antibody on AHC sensor
Supply the numeric figure in M⁻¹ s⁻¹, leaving out any unit text.

As a guide, the following entries are already answered.
Short answer for #9104v-H17 (antibody, human IgG4 S228P, lambda, V domains shown, Full-length IgG, lambda) VH: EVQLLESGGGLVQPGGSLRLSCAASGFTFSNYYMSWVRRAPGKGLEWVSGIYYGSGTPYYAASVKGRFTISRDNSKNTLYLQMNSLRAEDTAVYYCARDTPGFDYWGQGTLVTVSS VL: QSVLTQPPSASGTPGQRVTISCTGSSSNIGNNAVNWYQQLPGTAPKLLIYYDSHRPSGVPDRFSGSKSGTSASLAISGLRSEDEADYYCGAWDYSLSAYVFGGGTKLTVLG : kon was 338000

Short answer for #9104v-H25 (antibody, human IgG4 S228P, lambda, V domains shown, Full-length IgG, lambda) VH: EVQLLESGGGLVQPGGSLRLSCAASGFTFSNYYMSWVRQAPGKGLEWVSGTYYASGGIYYADSVKGRFTISRDNSKNTLYLQMNSLRAEDTAVYYCARDTPGFDYWGQGTLVTVSS VL: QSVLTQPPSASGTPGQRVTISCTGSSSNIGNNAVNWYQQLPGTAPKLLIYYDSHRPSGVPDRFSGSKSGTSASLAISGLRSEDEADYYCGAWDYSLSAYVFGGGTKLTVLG : kon was 207000

Short answer for #9104v-H22 (antibody, human IgG4 S228P, lambda, V domains shown, Full-length IgG, lambda) VH: EVQLLESGGGLVQPGGSLRLSCAASGFTFSNYYMSWVRQAPGKGLEWVSGLYYGGGTPYYADSVKGRFTISRDNSKNTLYLQMNSLRAEDTAVYYCARDTPGFDYWGQGTLVTVSS VL: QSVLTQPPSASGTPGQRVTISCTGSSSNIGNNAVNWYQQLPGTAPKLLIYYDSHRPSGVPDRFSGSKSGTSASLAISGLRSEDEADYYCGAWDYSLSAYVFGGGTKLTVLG : kon was 197000

Short answer for #9104v-H33 (antibody, human IgG4 S228P, lambda, V domains shown, Full-length IgG, lambda) VH: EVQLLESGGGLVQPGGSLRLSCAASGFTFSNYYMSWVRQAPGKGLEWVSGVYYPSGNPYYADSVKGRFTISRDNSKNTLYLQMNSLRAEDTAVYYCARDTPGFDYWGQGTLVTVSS VL: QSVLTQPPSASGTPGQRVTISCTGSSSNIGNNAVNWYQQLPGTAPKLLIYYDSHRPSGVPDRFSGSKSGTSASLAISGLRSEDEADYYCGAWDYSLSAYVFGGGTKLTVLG : kon was 208000

Short answer for #9104v-H24 (antibody, human IgG4 S228P, lambda, V domains shown, Full-length IgG, lambda) VH: EVQLLESGGGLVQPGGSLRLSCAASGFTFSNYYMSWVRQAPGKGLEWVSGLYYGSGIPYYADSVKGRFTISRDNSKNTLYLQMNSLRAEDTAVYYCARDTPGFDYWGQGTLVTVSS VL: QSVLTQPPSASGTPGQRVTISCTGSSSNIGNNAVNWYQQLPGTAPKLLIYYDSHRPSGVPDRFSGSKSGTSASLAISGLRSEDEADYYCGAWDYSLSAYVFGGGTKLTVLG : kon was 204000

Further cases:
Short answer for #9104v-H05 (antibody, human IgG4 S228P, lambda, V domains shown, Full-length IgG, lambda) VH: EVQLLESGGGLVQPGGSLRLSCAASGFTFSNYYMSWVRQAPGKGLEWVSGIYYGGVKIYYADSVKGRFTISRDNSKNTLYLQMNSLRAEDTAVYYCARDTPGFDYWGQGTLVTVSS VL: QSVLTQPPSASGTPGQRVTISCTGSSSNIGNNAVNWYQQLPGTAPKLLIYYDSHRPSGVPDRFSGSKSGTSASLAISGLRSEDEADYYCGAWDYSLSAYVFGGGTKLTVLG : kon was 171000

Short answer for #9104v-H27 (antibody, human IgG4 S228P, lambda, V domains shown, Full-length IgG, lambda) VH: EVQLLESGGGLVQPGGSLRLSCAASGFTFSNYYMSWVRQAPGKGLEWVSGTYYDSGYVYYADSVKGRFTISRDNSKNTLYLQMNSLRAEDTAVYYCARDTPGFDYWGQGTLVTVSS VL: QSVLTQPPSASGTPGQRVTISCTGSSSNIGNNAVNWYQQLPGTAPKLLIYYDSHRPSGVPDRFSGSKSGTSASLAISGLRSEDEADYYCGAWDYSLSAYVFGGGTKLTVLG : kon was 276000
